test system: CaES-17 (esophageal cancer cell); assay: Solid tumor cell growth inhibition, MTT, 72 h (Example 7); assay type: cell-based, human; settings: Homo sapiens, CaEs17; 72 h, MTT, CAES-17
// assign 1 if IC50 falls strictly below 2 µg/mL, else -1 (ties count as -1)

The examples below pair each entry with its known result.
COCCCNCc1c2c3c(c(OC)c1OC)Oc1cc4c(cc1OC)CCN(C)[C@H]4Cc1ccc(cc1)Oc1cc(ccc1OC)C[C@@H]3N(C)CC2 = 1
COc1ccc2cc1Oc1ccc(cc1)C[C@H]1c3cc(c(OC)cc3CCN1C)Oc1c(OC)c(OC)c(CNCc3ccc(C)o3)c3c1[C@H](C2)N(C)CC3 = -1

API: query returns whether the compound falls strictly under 2 µg/mL in IC50. Query: "COc1ccc2cc1Oc1ccc(cc1)C[C@H]1c3cc(c(OC)cc3CCN1C)Oc1c(OC)c(OC)c(CN3CCN(c4ccccc4)CC3)c3c1[C@H](C2)N(C)CC3" -1

API: query returns whether the compound falls strictly under 2 µg/mL in IC50. Query: "COc1ccc2cc1Oc1ccc(cc1)C[C@H]1c3cc(c(OC)cc3CCN1C)Oc1c(OC)c(OC)c(CN3CC=CC3)c3c1[C@H](C2)N(C)CC3" -1

API: query returns whether the compound falls strictly under 2 µg/mL in IC50. Query: "COc1ccc2cc1Oc1ccc(cc1)C[C@H]1c3cc(c(OC)cc3CCN1C)Oc1c(OC)c(OC)c(CN3CCN(CCO)CC3)c3c1[C@H](C2)N(C)CC3" -1
